system: normal primary NK cells, pool 3 (3 donors) (IL-2 2.5 ng/mL); assay: percent inhibition of viability; higher = more inhibition; conditions: 72 h; 1 nM;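 further: normalised to DMSO-only wells as negative and benzethonium chloride as positive control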
value-type: percent inhibition of viability
Include the unit right after the number.

[
  {
    "compound": "CCC/C=C/C=C/C(=O)O[C@H]1/C(=C/C(=O)OC)C[C@H]2C[C@H]([C@@H](C)O)OC(=O)C[C@H](O)C[C@@H]3C[C@H](OC(C)=O)C(C)(C)[C@](O)(C[C@@H]4C/C(=C/C(=O)OC)C[C@H](/C=C/C(C)(C)[C@]1(O)O2)O4)O3 [Bryostatin 1] (max concentration tested 100 nM)",
    "percent inhibition of viability": "-40.2%"
  }
]

Incoming: Answer with the recorded percent inhibition of viability for the compound listed here: CC(C)(C#N)c1cc(Cn2cncn2)cc(C(C)(C)C#N)c1 [Anastrozole] (max concentration tested 10000 nM)
Outgoing: -11.2%

Incoming: Report percent inhibition of viability, nothing else, for this compound: Cn1cncc1[C@@](N)(c1ccc(Cl)cc1)c1ccc2c(c1)c(-c1cccc(Cl)c1)cc(=O)n2C [Tipifarnib] (max concentration tested 10000 nM)
Outgoing: -5.22%

Incoming: Please give the documented percent inhibition of viability of CCNC(=O)c1noc(-c2cc(C(C)C)c(O)cc2O)c1-c1ccc(CN2CCOCC2)cc1 [Luminespib] (max concentration tested 1000 nM)
Outgoing: -6.55%

Incoming: Note percent inhibition of viability for the compound shown: CNC(=O)c1cc(Oc2ccc(NC(=O)Nc3ccc(Cl)c(C(F)(F)F)c3)cc2)ccn1 [Sorafenib] (max concentration tested 1000 nM)
Outgoing: -9.01%

# credit: the supplement of paper PMC5908809
